experiment: Thin-layer chromatography on silica gel (retention factor Rf, lipophilicity); format: physicochemical; conditions: metal-free ligand of the named Mn porphyrin; silica gel TLC, KNO3-saturated H2O/H2O/acetonitrile = 1/1/8
Property label: Rf (compound path/solvent path), metal-free porphyrin (in parenthesis)

>>> value_reported("CCn1cc[n+](CC)c1-c1c2nc(c(-c3n(CC)cc[n+]3CC)c3ccc([n-]3)c(-c3n(CC)cc[n+]3CC)c3nc(c(-c4n(CC)cc[n+]4CC)c4ccc1[n-]4)C=C3)C=C2.[Mn+3] [MnTDE-2-ImP^5+]")
0.23
>>> value_reported("COCCn1cc[n+](CCOC)c1-c1c2nc(c(-c3n(CCOC)cc[n+]3CCOC)c3ccc([n-]3)c(-c3n(CCOC)cc[n+]3CCOC)c3nc(c(-c4n(CCOC)cc[n+]4CCOC)c4ccc1[n-]4)C=C3)C=C2.[Mn+3] [MnTDMOE-2-ImP^5+]")
0.24
>>> value_reported("COCC[n+]1ccccc1-c1c2nc(c(-c3cccc[n+]3CCOC)c3ccc([n-]3)c(-c3cccc[n+]3CCOC)c3nc(c(-c4cccc[n+]4CCOC)c4ccc1[n-]4)C=C3)C=C2.[Mn+3] [MnTMOE-2-PyP^5+]")
0.18
>>> value_reported("COCCn1cc[n+](C)c1-c1c2nc(c(-c3n(CCOC)cc[n+]3C)c3ccc([n-]3)c(-c3n(CCOC)cc[n+]3C)c3nc(c(-c4n(CCOC)cc[n+]4C)c4ccc1[n-]4)C=C3)C=C2.[Mn+3] [MnTM,MOE-2-ImP^5+]")
0.17

---

assay: Thin-layer chromatography on silica gel (retention factor Rf, lipophilicity); type: physicochemical; conditions: silica gel TLC, KNO3-saturated H2O/H2O/acetonitrile = 1/1/8
Below: a set of entries, each annotated with reported Rf (compound path/solvent path), Mn complex.
Property label: Rf (compound path/solvent path), Mn complex

>>> value_reported("COCC[n+]1ccccc1-c1c2nc(c(-c3cccc[n+]3CCOC)c3ccc([n-]3)c(-c3cccc[n+]3CCOC)c3nc(c(-c4cccc[n+]4CCOC)c4ccc1[n-]4)C=C3)C=C2.[Mn+3] [MnTMOE-2-PyP^5+]")
0.16
>>> value_reported("COCCn1cc[n+](CCOC)c1-c1c2nc(c(-c3n(CCOC)cc[n+]3CCOC)c3ccc([n-]3)c(-c3n(CCOC)cc[n+]3CCOC)c3nc(c(-c4n(CCOC)cc[n+]4CCOC)c4ccc1[n-]4)C=C3)C=C2.[Mn+3] [MnTDMOE-2-ImP^5+]")
0.21
>>> value_reported("CCn1cc[n+](CC)c1-c1c2nc(c(-c3n(CC)cc[n+]3CC)c3ccc([n-]3)c(-c3n(CC)cc[n+]3CC)c3nc(c(-c4n(CC)cc[n+]4CC)c4ccc1[n-]4)C=C3)C=C2.[Mn+3] [MnTDE-2-ImP^5+]")
0.17
>>> value_reported("COCCn1cc[n+](C)c1-c1c2nc(c(-c3n(CCOC)cc[n+]3C)c3ccc([n-]3)c(-c3n(CCOC)cc[n+]3C)c3nc(c(-c4n(CCOC)cc[n+]4C)c4ccc1[n-]4)C=C3)C=C2.[Mn+3] [MnTM,MOE-2-ImP^5+]")
0.15
